Test: Pharmacokinetic study in mice, non-compartmental analysis
Assay type: in vivo, Female BALB/c mice
Details: female, BALB/c, mouse, plasma, iv, 10 mg/kg
quantity_name: Vd (L)

>>> print(df.to_string())
                           molecular_string  measured_result
0  Cc1[nH]nc(C(F)(F)F)c1Cc1sc2c(c1C(=O)N1C[C@](C)(O)CO1)c(=O)n(C)c(=O)n2C(C)C           0.0442

###

Assay: Pharmacokinetic study in mice, non-compartmental analysis
Format: in vivo, Female BALB/c mice
Settings: female, BALB/c, mouse, plasma, po, 100 mg/kg
quantity_name: AUC(0-inf)

In [3]: df
Out[3]:
                           molecular_string  measured_result
0  Cc1[nH]nc(C(F)(F)F)c1Cc1sc2c(c1C(=O)N1C[C@](C)(O)CO1)c(=O)n(C)c(=O)n2C(C)C    71400 ng·h/mL

###

Experiment: Pharmacokinetic study in mice, non-compartmental analysis
Assay type: in vivo, Female BALB/c mice
Conditions: female, BALB/c, mouse, plasma, po, 100 mg/kg
quantity_name: k el

                           molecular_string  quantity_name  measured_result
0  Cc1[nH]nc(C(F)(F)F)c1Cc1sc2c(c1C(=O)N1C[C@](C)(O)CO1)c(=O)n(C)c(=O)n2C(C)C           k el     4.33e-05 s⁻¹

###

Assay: Pharmacokinetic study in mice, non-compartmental analysis
Assay type: in vivo, Female BALB/c mice
Details: female, BALB/c, mouse, plasma, iv, 100 mg/kg
quantity_name: k el (s⁻¹)

>>> print(df.to_string())
                           molecular_string  quantity_name  measured_result
0  Cc1[nH]nc(C(F)(F)F)c1Cc1sc2c(c1C(=O)N1C[C@](C)(O)CO1)c(=O)n(C)c(=O)n2C(C)C           k el         7.64e-05

###

Assay: Pharmacokinetic study in mice, non-compartmental analysis
Assay type: in vivo, Female BALB/c mice
Details: female, BALB/c, mouse, plasma, iv, 100 mg/kg
quantity_name: clearance

In [3]: df
Out[3]:
                           molecular_string  quantity_name  measured_result
0  Cc1[nH]nc(C(F)(F)F)c1Cc1sc2c(c1C(=O)N1C[C@](C)(O)CO1)c(=O)n(C)c(=O)n2C(C)C      clearance     0.367 mL/min
